# test details: rotarod test (neurotoxicity), mouse
# measurement parameters: rotarod, po, at 1 hour, dose at which 50% of trained animals fall off the rotarod
Documented TD50 po at 1 hour across a set of compounds

Sample records with TD50 po at 1 hour:
> print(dat)
                                   compound      measured.value
1  CCC1(c2ccccc2)C(=O)NC(=O)NC1=O [phenobarbital]     68(52-92) mg/kg
2  NC(=O)N1c2ccccc2C=Cc2ccccc21 [carbamazepine]  166(104-282) mg/kg
3   NCc1nnc(-c2ccccc2-c2ccccc2)s1 [Example]  318(230-471) mg/kg

[Q] Specify TD50 po at 1 hour for O=C1NC(=O)C(c2ccccc2)(c2ccccc2)N1 [phenytoin] and stop.
[A] 216(154-239) mg/kg

// data source = patent US4782072A
